test: Aqueous phase solubility of PMF; format: physicochemical; details: pure buffer solution, 25 °C, aqueous buffer, kinetic from dmso stock
PARAMETER: solubility kinetic at 72 h (µg/mL)
Quick note: give the figure in µg/mL, leave out the unit.

Which solubility kinetic at 72 h value is on record for COc1ccc(-c2cc(=O)c3c(O)c(OC)c(OC)c(OC)c3o2)cc1 [PMF, 5-hydroxy-6,7,8,4'-tetramethoxy-flavone] ? 0.33

* * *

assay: Organic phase solubility of PMF; assay type: physicochemical; conditions: oil phases (LCT, MCT), 25 °C, oil or lipid, thermodynamic from solid
PARAMETER: solubility at 72 h

Which solubility at 72 h value is on record for COc1ccc(-c2cc(=O)c3c(O)c(OC)c(OC)c(OC)c3o2)cc1 [PMF, 5-hydroxy-6,7,8,4'-tetramethoxy-flavone] ? 4 to 6 mM

Cited source: paper PMC3640569
